Listed here: items and their measured IC50.
# TARGET: CK2 ααββ (Homo sapiens (Human), UniProt P68400)
# Sequence (P68400 whole entry): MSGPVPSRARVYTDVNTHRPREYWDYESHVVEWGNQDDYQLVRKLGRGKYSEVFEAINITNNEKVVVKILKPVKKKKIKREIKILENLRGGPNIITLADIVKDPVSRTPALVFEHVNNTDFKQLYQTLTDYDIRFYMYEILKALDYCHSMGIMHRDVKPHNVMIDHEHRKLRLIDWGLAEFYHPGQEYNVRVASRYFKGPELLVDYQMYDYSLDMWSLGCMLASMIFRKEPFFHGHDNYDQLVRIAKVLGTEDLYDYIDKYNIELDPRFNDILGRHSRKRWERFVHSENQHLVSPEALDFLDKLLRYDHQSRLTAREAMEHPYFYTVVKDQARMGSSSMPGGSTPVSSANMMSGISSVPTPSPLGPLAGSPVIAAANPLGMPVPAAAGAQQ
# Sequence (P67870 whole entry partner): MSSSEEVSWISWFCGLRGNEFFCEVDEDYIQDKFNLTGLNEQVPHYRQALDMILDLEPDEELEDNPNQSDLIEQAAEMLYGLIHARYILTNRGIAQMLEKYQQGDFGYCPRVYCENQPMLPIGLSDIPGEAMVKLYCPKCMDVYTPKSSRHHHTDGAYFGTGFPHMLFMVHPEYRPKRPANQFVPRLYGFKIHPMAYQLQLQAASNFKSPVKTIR

For orientation, consider the following solved cases.
O=C1NC(=O)/C(=C/c2cnn3c(NC4CC4)cc(-c4cccc(OC(F)(F)F)c4)nc23)N1: < 10 nM
O=C1NC(=O)/C(=C/c2cnn3c([S+]([O-])Cc4ccccc4)cc(-c4cccc(Cl)c4)nc23)N1 (centres unmarked): < 100 nM
CC(C)Oc1cccc(Nc2cc(NC3CC3)n3ncc(/C=C4\NC(=O)NC4=O)c3n2)c1: < 10 nM
CC(CNc1cc(Nc2ccc(C#N)cc2Cl)nc2c(C=C3NC(=O)NC3=O)cnn12)N1CCOCC1 (racemic): < 10 nM
CN(C)C(=O)N1CCC(Nc2cc(Nc3cccc(Cl)c3)nc3c(/C=C4\NC(=O)NC4=O)cnn23)CC1: < 100 nM
O=C1NC(=O)/C(=C/c2cnn3c(NC4CC4)cc(Nc4cccc(F)c4)nc23)N1 [Example D1]: < 10 nM
CN1C(=O)S/C(=C\c2cnn3c(NC4CC4)cc(Nc4cccc(Cl)c4)nc23)C1=O: < 1000 nM
O=C1NC(=O)/C(=C/c2cnn3c(NC4CC4)cc(-c4cccc(OCC(=O)N5CCCC5)c4)nc23)N1: < 10 nM

Prompt: Look up IC50 with CK2 ααββ (Homo sapiens (Human), UniProt P68400) for this compound: NC(=O)c1cccc(-c2cc(NC3CC3)n3ncc(/C=C4\NC(=O)NC4=O)c3n2)c1
Response: < 10 nM

Prompt: Look up IC50 with CK2 ααββ (Homo sapiens (Human), UniProt P68400) for this compound: COc1cccc(Nc2cc(NC3CC3)n3ncc(/C=C4\NC(=O)NC4=O)c3n2)c1
Response: < 10 nM

Prompt: Look up IC50 with CK2 ααββ (Homo sapiens (Human), UniProt P68400) for this compound: COc1cccc(Nc2cc(NC3CC3)n3ncc(/C=C4\NC(=O)NC4=O)c3n2)c1Cl [Example P1]
Response: < 10 nM

* * *

Listed here: items and their measured pIC50.
# TARGET: UniProt P68400
pIC50: −log10 of the molar value.

O=C1NC(=O)/C(=C/c2cnn3c(NCCN4CCOCC4)cc(Nc4cccc(Cl)c4)nc23)N1 [Example L6]: > 5.70
CN(C)CCCOc1ccc(Nc2cc(NC3CC3)n3ncc(C=C4NC(=O)NC4=O)c3n2)cc1Cl [Example T42]: > 8.00
CC(C)(C)CC(=O)N1CCC(Nc2cc(Nc3cccc(Cl)c3)nc3c(/C=C4\NC(=O)NC4=O)cnn23)CC1 [Example S5]: > 7.00
O=C1NC(=O)/C(=C/c2cnn3c(NC4CC4)cc(-c4cccnc4)nc23)N1 [Example U4]: > 8.00

Now look at this entry.
Prompt: Could you share which pIC50 value was measured for COc1ccc(Nc2cc(NC3CC3)n3ncc(/C=C4\NC(=O)NC4=O)c3n2)cc1Cl [Example K1] ?
Response: > 8.00

* * *

Consider the following IC50 values measured on CK2 ααββ (Homo sapiens (Human)).

For orientation, consider the following solved cases.
C[C@@H](Nc1cc(NC2CC2)n2ncc(/C=C3\NC(=O)NC3=O)c2n1)C1CC1: < 10 nM
CCOC(=O)c1cc(F)cc(Nc2cc(NCC3CC3)n3ncc(/C=C4\NC(=O)NC4=O)c3n2)c1: < 100 nM
CC(=O)NC1CCC(Nc2cc(NC3CC3)n3ncc(/C=C4\NC(=O)NC4=O)c3n2)CC1 (stereo not shown) [Example D3]: < 10 nM

Now look at this entry.
Prompt: Look up IC50 with CK2 ααββ (Homo sapiens (Human)) for this compound: Nc1cc(NC2CC2)n2ncc(/C=C3\NC(=O)NC3=O)c2n1
Response: < 10 nM

* * *

# TARGET: recombinant human PIM2 (Homo sapiens (Human))
# EXPERIMENT_NOTES: PIM-2 assay (33P-ATP filter binding)
# Type: biochemical
# TEST_CONTEXT: PIM2: IC50 (5 μM ATP), 5 μM ATP
Listed here: items and their measured IC50.
Express your answer in µM, writing the number without its unit.

For orientation, consider the following solved cases.
O=C1NC(=O)/C(=C/c2cnn3c(NC4CC4)cc(NCC4CC4)nc23)N1: 0.998
O=C1NC(=O)/C(=C/c2cnn3c(NC4CC4)cc(N4CCOCC4)nc23)S1: 1.39
O=C1NC(=O)/C(=C/c2cnn3c(NCC4CC4)cc(Nc4cccc(Cl)c4)nc23)N1: 0.509
COC(=O)N[C@H]1CC[C@H](Nc2cc(NC3CC3)n3ncc(/C=C4\NC(=O)NC4=O)c3n2)CC1: 0.679
O=C1NC(=O)/C(=C/c2cnn3c([S+]([O-])Cc4ccccc4)cc(-c4cccc(Cl)c4)nc23)N1 (stereo not shown): 0.209
C[C@H](Nc1cc(NC2CC2)n2ncc(/C=C3\NC(=O)NC3=O)c2n1)C1CC1: 0.766
CC(=O)c1cccc(-c2cc(NC3CC3)n3ncc(/C=C4\NC(=O)NC4=O)c3n2)c1: 2.08

Prompt: Could you share which IC50 value was measured for CC(C)(C)OC(=O)N1CCN(C(=O)c2cccc(Nc3cc(Nc4cccc(Cl)c4)nc4c(/C=C5\NC(=O)NC5=O)cnn34)c2)CC1 ?
Response: 2.02

* * *

# TARGET: recombinant human PIM2 (Homo sapiens (Human), UniProt Q9P1W9)
# Sequence (Q9P1W9 whole entry): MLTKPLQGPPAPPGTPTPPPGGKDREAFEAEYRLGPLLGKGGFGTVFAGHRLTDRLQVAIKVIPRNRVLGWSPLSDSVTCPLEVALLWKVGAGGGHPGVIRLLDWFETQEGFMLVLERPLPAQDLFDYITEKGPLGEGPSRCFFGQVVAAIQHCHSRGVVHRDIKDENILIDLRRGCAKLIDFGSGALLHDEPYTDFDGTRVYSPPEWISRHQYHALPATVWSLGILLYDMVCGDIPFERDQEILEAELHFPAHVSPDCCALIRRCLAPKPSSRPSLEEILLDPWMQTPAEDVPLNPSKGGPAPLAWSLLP
# EXPERIMENT_NOTES: PIM-2 assay (33P-ATP filter binding)
# Format: biochemical
# TEST_CONTEXT: PIM2: IC50 (5 μM ATP), 5 μM ATP
PROPERTY_MEASURED: pIC50
Remember the convention: pIC50 equals -log10 of concentration in molar.

CC(C)CNc1cc(NC2CC2)n2ncc(/C=C3\SC(=O)NC3=O)c2n1: 5.78
CN(C)CCCOc1cccc(-c2cc(NC3CC3)n3ncc(/C=C4\NC(=O)NC4=O)c3n2)c1: 5.65
N[C@H]1CC[C@H](Nc2cc(NC3CC3)n3ncc(/C=C4\NC(=O)NC4=O)c3n2)CC1: 6.06
O=C1NC(=O)/C(=C/c2cnn3c(NC4CC4)cc(-c4cccc(OC(F)(F)F)c4)nc23)N1: 6.05
CN1CCC(N(C)c2cc(NC3CC3)n3ncc(/C=C4\SC(=O)NC4=O)c3n2)C1 (stereo not shown): 5.84
O=C1NC(=O)/C(=C/c2cnn3c(NCC4CC4)cc(NN4CCOCC4)nc23)N1: 6.55

Prompt: Could you share which pIC50 value was measured for O=C1NC(=O)/C(=C/c2cnn3c(NCCN4CCOCC4)cc(Nc4cccc(Cl)c4)nc23)N1 ?
Response: 5.66

* * *

Consider the following pIC50 values measured on CK2 ααββ (Homo sapiens (Human)).
pIC50: −log10 of the molar value.

O=C1NC(=O)/C(=C/c2cnn3c(NC4CC4)cc(-c4cccc(CN5CCOCC5)c4)nc23)N1: > 8.00
O=C1NC(=O)/C(=C/c2cnn3c(NCC4CC4)cc(Nc4ccc(F)c(Cl)c4)nc23)N1 [Example D2]: > 7.00
N[C@H]1CC[C@H](Nc2cc(NC3CC3)n3ncc(/C=C4\NC(=O)NC4=O)c3n2)CC1: > 7.00

Prompt: Could you share which pIC50 value was measured for O=C1NC(=O)/C(=C/c2cnn3c(NC4CC4)cc(Nc4ccc(Cl)cc4)nc23)N1 ?
Response: > 8.00

* * *

# TARGET: recombinant human PIM2 (Homo sapiens (Human))
# EXPERIMENT_NOTES: PIM-2 assay (33P-ATP filter binding)
# Format: biochemical
# TEST_CONTEXT: Tables 41B, 42B; read-out: PIM2: IC50
Listed here: items and their measured IC50.

O=C1NC(=O)C(=Cc2cnn3c(NC4CC4)cc(Oc4cccc(Cl)c4)nc23)N1 [Compound U38]: > 2.5 µM

Now look at this entry.
Prompt: Could you share which IC50 value was measured for N#Cc1ccc(Oc2cc(NC3CC3)n3ncc(C=C4NC(=O)NC4=O)c3n2)c(Cl)c1 [Compound V38] ?
Response: > 2.5 µM

* * *

Listed here: items and their measured IC50.
# Test system: BxPC3 human pancreatic adenocarcinoma cells
# EXPERIMENT_NOTES: Cell proliferation assay with Alamar Blue (AB), BxPC3
# Format: cell-based
# TEST_CONTEXT: Homo sapiens, BXPC-3, read-out: AB: BxPC3
Express your answer in µM, writing the number without its unit.

For orientation, consider the following solved cases.
CC(C)(C)C(=O)N1CCC(Nc2cc(Nc3cccc(Cl)c3)nc3c(/C=C4\NC(=O)NC4=O)cnn23)CC1 [Example M5]: 10
CC(C)(C)CC(=O)Nc1cc(NC2CC2)n2ncc(/C=C3\NC(=O)NC3=O)c2n1 [Example M2]: 4.87

Now look at this entry.
Prompt: Look up IC50 with BxPC3 human pancreatic adenocarcinoma cells for this compound: CC(O)CNc1cc(Nc2cccc(Cl)c2)nc2c(/C=C3\NC(=O)NC3=O)cnn12 (stereo not shown) [Example K6]
Response: 3.16
